Each record here notes measured Vd.
assay: Apparent volume of distribution in Sprague-Dawley rat at 5 mg/kg, iv by LC-MS/MS analysis; assay type: ADME, organism-based; design: dose 5 mg/kg, route intravenous; conditions: in vivo, read-out: Vz
Measure: Vd (L/kg)

>  <Smiles Record>
CC(=O)O[C@@]12CO[C@@H]1C[C@H](O)[C@@]1(C)C(=O)[C@H](O)C3=C(C)[C@@H](OC(=O)[C@H](O)[C@@H](NC(=O)OC(C)(C)C)c4ccccc4)C[C@@](O)([C@@H](OC(=O)c4ccccc4)[C@H]21)C3(C)C.O.O.O

>  <Data Value>
78.8

$$$$
>  <Smiles Record>
CC(=O)O[C@@]12CO[C@@H]1C[C@H](O)[C@@]1(C)C(=O)[C@H](O)C3=C(C)[C@@H](OC(=O)[C@H](O)[C@@H](NC(=O)OC(C)(C)C(F)F)c4ccccc4)C[C@@](O)([C@@H](OC(=O)c4ccccc4)[C@H]21)C3(C)C

>  <Data Value>
20.2

$$$$
